Cited source: patent US20110135573A1

# maps each entry to its log10 Ki
Molecular target: T1, Mouse MMP-9 (R&D, 909-MM), APMA-activated (mouse, UniProt P41245 108-730, limits assumed)
T1 construct: also called mMMP-9; mouse MMP-9 (R&D Systems #909-MM-010)
T1 sequence (P41245 108-730 limits assumed): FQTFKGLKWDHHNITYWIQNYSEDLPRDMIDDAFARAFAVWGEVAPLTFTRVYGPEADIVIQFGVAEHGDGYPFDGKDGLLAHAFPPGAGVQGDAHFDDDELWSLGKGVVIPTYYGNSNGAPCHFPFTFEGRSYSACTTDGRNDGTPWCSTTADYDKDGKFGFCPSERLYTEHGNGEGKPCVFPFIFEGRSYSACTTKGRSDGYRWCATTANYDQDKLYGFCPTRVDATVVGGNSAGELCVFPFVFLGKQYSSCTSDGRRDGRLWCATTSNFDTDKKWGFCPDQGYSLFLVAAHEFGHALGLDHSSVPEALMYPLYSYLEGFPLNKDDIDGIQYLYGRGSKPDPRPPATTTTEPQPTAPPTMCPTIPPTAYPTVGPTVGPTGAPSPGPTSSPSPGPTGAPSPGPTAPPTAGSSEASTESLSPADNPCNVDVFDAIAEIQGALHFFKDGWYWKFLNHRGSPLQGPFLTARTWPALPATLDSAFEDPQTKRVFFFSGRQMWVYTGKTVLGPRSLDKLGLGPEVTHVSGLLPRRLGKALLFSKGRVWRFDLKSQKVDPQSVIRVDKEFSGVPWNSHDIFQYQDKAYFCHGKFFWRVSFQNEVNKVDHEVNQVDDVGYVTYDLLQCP
Assay: Ki,app, enzyme inhibition assay (fluorogenic peptide substrate), small-scale sFab
All values: log10 Ki [nM].

Before answering, review these 3 worked examples.
M0275-E12 (Fab, V domains shown, sFab; variable domains only; also called M275-E12) VH: EVQLLESGGGLVQPGGSLRLSCAASGFTFSHYDMWWVRQAPGKGLEWVSVIYSSGGFTGYADSVKGRFTISRDNSKNTLYLQMNSLRAEDTAVYYCAKDRAYGDYVGWNGFDYWGQGTLVTVSS VL: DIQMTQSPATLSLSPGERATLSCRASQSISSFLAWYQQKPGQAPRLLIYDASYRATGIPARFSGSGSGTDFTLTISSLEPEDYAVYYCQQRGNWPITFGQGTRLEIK; 0.00
M0306-D04 (Fab, V domains shown, sFab; variable domains only; also called M306-D04) VH: EVQLLESGGGLVQPGGSLRLSCAASGFTFSLYPMWWVRQAPGKGLEWVSSIYPSGGATFYADSVKGRFTISRDNSKNTLYLQMNSLRAEDTAVYYCAKDRAYGDYVGWNGFDYWGQGTLVTVSS VL: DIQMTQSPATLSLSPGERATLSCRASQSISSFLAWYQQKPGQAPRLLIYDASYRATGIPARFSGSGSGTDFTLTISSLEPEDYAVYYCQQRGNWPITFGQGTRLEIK; 0.45
M0276-F11 (Fab, V domains shown, sFab; variable domains only; also called M276-F11) VH: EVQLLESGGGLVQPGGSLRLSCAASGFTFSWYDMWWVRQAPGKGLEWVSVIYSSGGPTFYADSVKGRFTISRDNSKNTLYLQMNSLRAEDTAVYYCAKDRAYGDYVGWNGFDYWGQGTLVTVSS VL: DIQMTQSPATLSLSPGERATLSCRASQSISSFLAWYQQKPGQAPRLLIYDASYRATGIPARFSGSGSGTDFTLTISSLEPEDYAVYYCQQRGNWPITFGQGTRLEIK; -0.40

**Query** What value of log10 Ki has been reported for the following binder? M0307-F04 (Fab, V domains shown, sFab; variable domains only; also called M307-F04) VH: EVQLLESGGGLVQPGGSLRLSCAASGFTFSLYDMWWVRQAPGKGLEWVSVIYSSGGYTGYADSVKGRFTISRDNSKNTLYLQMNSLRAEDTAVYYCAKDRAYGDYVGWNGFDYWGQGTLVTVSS VL: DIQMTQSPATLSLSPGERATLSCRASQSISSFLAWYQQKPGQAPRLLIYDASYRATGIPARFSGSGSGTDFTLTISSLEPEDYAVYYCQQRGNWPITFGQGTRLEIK
**Result** -1.00

**Query** What value of log10 Ki has been reported for the following binder? M0275-D03 (Fab, V domains shown, sFab; variable domains only; also called M275-D03) VH: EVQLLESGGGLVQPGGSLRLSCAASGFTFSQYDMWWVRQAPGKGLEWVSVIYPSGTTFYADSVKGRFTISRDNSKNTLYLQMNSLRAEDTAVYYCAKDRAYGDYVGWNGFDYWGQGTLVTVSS VL: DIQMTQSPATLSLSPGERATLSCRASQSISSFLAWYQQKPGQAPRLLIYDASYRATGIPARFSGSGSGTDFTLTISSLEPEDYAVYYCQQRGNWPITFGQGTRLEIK
**Result** 0.08
